- target-under-test: T1, recombinant cynomolgus NKG2D-Fc fusion protein (cynomolgus; human, UniProt P61252 73-216)
- T1 construct: extracellular domain; not shown: human IgG1 Fc domain
- T1 sequence (looked up): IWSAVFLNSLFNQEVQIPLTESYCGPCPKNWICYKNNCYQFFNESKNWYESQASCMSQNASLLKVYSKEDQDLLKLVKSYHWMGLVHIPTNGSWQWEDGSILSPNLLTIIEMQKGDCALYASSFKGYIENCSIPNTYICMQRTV
- test-description: ELISA on coated NKG2D-Fc
experimental-endpoint: binding result

Query: // query binding result value for entry ADI-29426 (antibody, V domains shown) VH: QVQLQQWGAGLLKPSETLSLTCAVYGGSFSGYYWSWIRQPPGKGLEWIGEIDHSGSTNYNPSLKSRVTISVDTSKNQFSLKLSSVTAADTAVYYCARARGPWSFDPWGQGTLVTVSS VL: DIQMTQSPSTLSASVGDRVTITCRASQSIGSWLAWYQQKPGKAPKLLIYKASSLESGVPSRFSGSGSGTEFTLTISSLQPDDFATYYCQQYHSFPTFGGGTKVEIK
Result: binds

Query: Please look up its binding result: ADI-29407 (antibody, V domains shown) VH: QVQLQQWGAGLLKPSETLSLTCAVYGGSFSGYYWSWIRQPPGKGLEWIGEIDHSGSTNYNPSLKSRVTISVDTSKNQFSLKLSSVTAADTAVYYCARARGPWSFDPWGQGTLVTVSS VL: DIQMTQSPSTLSASVGDRVTITCRASQSISSWLAWYQQKPGKAPKLLIYKASSLESGVPSRFSGSGSGTEFTLTISSLQPDDFATYYCQQYQSFPTFGGGTKVEIK
Result: binds

Query: Which binding result is reported for this binder? ADI-27741 (antibody, V domains shown) VH: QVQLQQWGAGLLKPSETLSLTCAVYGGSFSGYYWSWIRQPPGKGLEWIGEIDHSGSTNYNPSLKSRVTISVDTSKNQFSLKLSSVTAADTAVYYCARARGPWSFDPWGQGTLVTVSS VL: DIQMTQSPSTLSASVGDRVTITCRASQSIGSWLAWYQQKPGKAPKLLIYKASSLESGVPSRFSGSGSGTEFTLTISSLQPDDFATYYCQQSNSYYTFGGGTKVEIK
Result: binds
